Method Notes: MRT in Sprague-Dawley rat at 10 mg/kg, po by LC-MS/MS analysis
Type: ADME, organism-based
Measurement Parameters: in vivo
Measured Property: MRT (h)
Numbers only, in h.

Request the reported MRT associated with COc1cccc(C2CC(=O)c3cc(NC(=O)c4cc(OC)c(OC)c(OC)c4)ccc3O2)c1 (racemic)
9.17

====

Method Notes: Half life in Sprague-Dawley rat at 5 mg/kg, po by LC-MS/MS analysis
Format: ADME, organism-based
Measurement Parameters: in vivo
Measured Property: half-life (h)
Answers are plain numbers, in h.

Request the reported half-life associated with COc1cccc(C2CC(=O)c3cc(NC(=O)c4cc(OC)c(OC)c(OC)c4)ccc3O2)c1 (racemic)
5.6

Data origin, for the record: ChEMBL document CHEMBL5030532
